test.system: recombinant EphB4 (Homo sapiens, UniProt P54760)
Construct: amino acids 563-987; Swiss-Prot Acc; No. P54760
Sequence (P54760 563-987): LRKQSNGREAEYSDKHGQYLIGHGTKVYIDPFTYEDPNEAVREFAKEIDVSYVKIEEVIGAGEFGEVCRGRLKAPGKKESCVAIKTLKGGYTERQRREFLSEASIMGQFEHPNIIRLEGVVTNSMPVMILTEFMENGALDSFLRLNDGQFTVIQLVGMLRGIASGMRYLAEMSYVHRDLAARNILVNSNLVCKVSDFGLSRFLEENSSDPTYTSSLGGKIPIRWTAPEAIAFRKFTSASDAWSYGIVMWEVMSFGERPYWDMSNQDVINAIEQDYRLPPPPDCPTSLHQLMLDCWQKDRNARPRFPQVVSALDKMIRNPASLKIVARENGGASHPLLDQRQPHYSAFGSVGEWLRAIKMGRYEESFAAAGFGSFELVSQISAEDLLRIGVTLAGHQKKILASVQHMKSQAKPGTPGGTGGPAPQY
test.protocol: In vitro EphB4 enzyme assay (Alphascreen)
quantity.measured: IC50 (nM)

As a guide, the following entries are already answered.
Cc1ccc(CO)cc1N(C)c1ccnc(Nc2cc(N3CCOCC3)cc(N3CC[C@@H](O)C3)c2)n1 = 13.5
COc1ccccc1N(C)c1ccnc(Nc2cc(N3CCOCC3)cc(N3CCOCC3)c2)n1 = 107
COc1cc(OC)cc(N(C)c2ccnc(Nc3cc(N4CCOCC4)cc(N4CCOCC4)c3)n2)c1 = 1120
Cc1ccc(CO)cc1N(C)c1ccnc(Nc2cc(N3CCOCC3)cc(N3CCC(O)CC3)c2)n1 = 75.9
Cc1ccc(CO)cc1N(C)c1ccnc(Nc2cc(OC(C)C)cc(N3CCOCC3)c2)n1 = 171

[P] Cc1ccc(CO)cc1N(C)c1ccnc(Nc2cc(OC3CCOC3)cc(N3CCOCC3)c2)n1 (centres unmarked)
[Q] COc1ccc(C)c(N(C)c2ccnc(Nc3cc(N4CCOCC4)cc(N4CCN(C)CC4)c3)n2)c1
[R] CN(c1ccnc(Nc2cccc(N3CCOCC3)c2)n1)c1ccc(F)c(Cl)c1F
Prompt: Returns the items ordered by IC50, from maximum to minimum. Give me the labels in the order the question wants.
Response: P, R, Q
(P: 481 nM, R: 304 nM, Q: 171 nM)
